Reported inhibition values for the following molecules.
# target-or-test-system: FAD-linked sulfhydryl oxidase ALR (Homo sapiens) (UniProt P55789)
# Sequence (P55789 whole entry, looked up): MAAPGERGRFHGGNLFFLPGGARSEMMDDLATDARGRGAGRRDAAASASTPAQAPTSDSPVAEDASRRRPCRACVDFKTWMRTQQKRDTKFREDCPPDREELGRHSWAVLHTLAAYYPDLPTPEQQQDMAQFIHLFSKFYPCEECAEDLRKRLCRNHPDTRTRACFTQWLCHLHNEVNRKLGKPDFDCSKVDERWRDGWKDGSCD
# assay-summary: ALR-catalysed DTT oxidation blockers – biochemical, H2O2 detection, HRP-luminol luminescence, single point, primary screen (AID 485317)
# condition-summary: purified ALR, stronger effect = higher value, concentration not given here
The campaign covered roughly 290,000 compounds. About 11,000 (3.8%) were called active. This excerpt belongs to a sample that is enriched for actives.
Write down the numeric answer in % and omit the unit.

Solved entries:
N#Cc1c(-c2ccccc2)nc(SCc2cccc(C(F)(F)F)c2)[nH]c1=O : 86.8
COc1ccc(-c2c3c(=O)n(C)c(=O)n(C)c3cn2-c2cccc(OC)c2)cc1 : -5.98

Ask: Given the entry O=C(CN1C(=O)NC2(CCCC2)C1=O)OCCOc1ccc(F)cc1 , report its measured inhibition.
Reply: -0.86

Ask: Proceed to Cn1c(SCC(=O)Nc2ccc(N3CCOCC3)cc2)nnc1C(F)(F)F
Reply: 93.8

Ask: Ok, now Cc1ccc(F)cc1S(=O)(=O)Nc1cccc(C(=O)N2CCCC(C(N)=O)C2)c1 (stereo unspecified)
Reply: -5.56
